Here the recorded Ki is given for each entry.
Target: Histamine H3 receptor (Homo sapiens, UniProt Q9Y5N1)
Sequence (Q9Y5N1 whole entry): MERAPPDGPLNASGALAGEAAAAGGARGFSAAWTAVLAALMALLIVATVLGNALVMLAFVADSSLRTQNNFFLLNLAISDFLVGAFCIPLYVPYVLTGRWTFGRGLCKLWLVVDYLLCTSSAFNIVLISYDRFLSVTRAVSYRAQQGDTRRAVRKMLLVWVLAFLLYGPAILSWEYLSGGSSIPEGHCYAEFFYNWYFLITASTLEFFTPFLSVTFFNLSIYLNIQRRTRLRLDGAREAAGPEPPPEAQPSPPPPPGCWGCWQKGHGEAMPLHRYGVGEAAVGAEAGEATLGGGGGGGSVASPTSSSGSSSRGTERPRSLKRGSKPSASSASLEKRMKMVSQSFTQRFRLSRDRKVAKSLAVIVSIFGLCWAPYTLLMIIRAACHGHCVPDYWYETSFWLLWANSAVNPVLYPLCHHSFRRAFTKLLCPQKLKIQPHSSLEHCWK
Write the value in µM as a bare number.

Q: What value of Ki on Histamine H3 receptor (Homo sapiens, UniProt Q9Y5N1) does C=CCN(CC=C)CCc1c[nH]c2ccc(F)cc12 have?
Ans: 2.09

Q: Report Ki for C=CCN(CC=C)CCc1c[nH]c2ccc(Br)cc12 tested on Histamine H3 receptor (Homo sapiens, UniProt Q9Y5N1).
Ans: 1.48

Q: Fill in the recorded Ki for this compound, with Histamine H3 receptor (Homo sapiens, UniProt Q9Y5N1) as test system: C=CCN(CC=C)CCc1c[nH]c2ccc(Cl)cc12
Ans: 1.58

Q: Form field: Ki recorded for C=CCN(CC=C)CCc1c[nH]c2ccc(OC)cc12 with Histamine H3 receptor (Homo sapiens, UniProt Q9Y5N1) (enter value)
Ans: 1.7

---

Biological target: UniProtKB P28223
Sequence (P28223 whole entry): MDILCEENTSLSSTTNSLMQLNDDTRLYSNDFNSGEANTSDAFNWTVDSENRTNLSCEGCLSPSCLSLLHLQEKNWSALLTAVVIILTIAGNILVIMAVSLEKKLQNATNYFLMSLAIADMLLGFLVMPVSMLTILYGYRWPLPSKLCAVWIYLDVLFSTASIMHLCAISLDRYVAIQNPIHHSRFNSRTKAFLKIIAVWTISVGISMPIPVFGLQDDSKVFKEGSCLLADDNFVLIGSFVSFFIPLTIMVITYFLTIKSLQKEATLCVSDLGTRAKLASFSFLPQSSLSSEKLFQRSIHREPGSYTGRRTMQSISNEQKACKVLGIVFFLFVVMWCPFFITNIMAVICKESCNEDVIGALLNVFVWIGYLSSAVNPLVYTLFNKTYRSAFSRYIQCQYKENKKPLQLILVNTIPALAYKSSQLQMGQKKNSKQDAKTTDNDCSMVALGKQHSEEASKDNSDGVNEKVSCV
Assay: Binding affinity to 5-HT 2A (unknown origin) by competition binding assay
Details: read-out: Ki
pKi: −log10 of the molar value.
PARAMETER: pKi

C=CCN(CC=C)CCc1c[nH]c2ccccc12 :: > 5.00

Q: Entry under review: C=CCN(CC=C)CCc1c[nH]c2ccc(C)cc12 . Reported pKi?
Ans: > 5.00

---

Molecular target: Alpha-2B adrenergic receptor (Homo sapiens, UniProt P18089)
Sequence (P18089 whole entry): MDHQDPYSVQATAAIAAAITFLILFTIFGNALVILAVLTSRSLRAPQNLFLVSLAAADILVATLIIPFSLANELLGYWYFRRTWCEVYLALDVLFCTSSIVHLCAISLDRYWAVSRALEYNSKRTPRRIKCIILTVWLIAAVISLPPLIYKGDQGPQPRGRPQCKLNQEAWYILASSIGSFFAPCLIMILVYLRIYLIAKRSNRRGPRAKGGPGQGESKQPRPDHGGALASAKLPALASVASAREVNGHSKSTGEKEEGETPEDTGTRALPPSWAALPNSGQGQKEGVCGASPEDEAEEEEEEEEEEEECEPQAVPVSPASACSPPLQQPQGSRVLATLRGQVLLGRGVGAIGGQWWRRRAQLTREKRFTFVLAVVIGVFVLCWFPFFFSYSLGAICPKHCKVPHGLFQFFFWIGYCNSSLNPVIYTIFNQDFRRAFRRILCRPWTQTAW
Assay: Binding affinity to alpha-2B adrenergic receptor (unknown origin) by competition binding assay
Conditions: read-out: Ki
PARAMETER: Ki

Q: Checklist item: Ki tested on Alpha-2B adrenergic receptor (Homo sapiens, UniProt P18089), entry C=CCN(CC=C)CCc1c[nH]c2ccccc12 , value?
Ans: < 10 µM

---

Molecular target: 5-hydroxytryptamine receptor 1E (Homo sapiens, UniProt P28566)
Sequence (P28566 whole entry): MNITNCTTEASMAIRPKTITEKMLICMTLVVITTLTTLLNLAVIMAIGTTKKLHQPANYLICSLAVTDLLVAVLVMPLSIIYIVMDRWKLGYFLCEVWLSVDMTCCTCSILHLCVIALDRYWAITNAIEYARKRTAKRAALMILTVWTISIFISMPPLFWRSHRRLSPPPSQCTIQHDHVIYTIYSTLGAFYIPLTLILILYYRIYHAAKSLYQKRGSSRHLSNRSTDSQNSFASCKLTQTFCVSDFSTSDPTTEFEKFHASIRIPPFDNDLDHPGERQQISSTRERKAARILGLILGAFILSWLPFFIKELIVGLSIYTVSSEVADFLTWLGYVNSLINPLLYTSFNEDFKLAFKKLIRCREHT
Assay: Binding affinity to 5-HT 1E (unknown origin) by competition binding assay
Settings: read-out: Ki
PARAMETER: Ki

Known Ki results, listed for orientation:
C=CCN(CC=C)CCc1c[nH]c2ccccc12 :: < 10 µM
C=CCN(CC=C)CCc1c[nH]c2ccc(C)cc12 :: < 10 µM

# ---- query molecule ----
Q: What does the record list as Ki for C=CCN(CC=C)CCc1c[nH]c2ccc(OC)cc12 ?
Ans: < 10 µM

---

Biological target: UniProt P08908
Sequence (P08908 whole entry): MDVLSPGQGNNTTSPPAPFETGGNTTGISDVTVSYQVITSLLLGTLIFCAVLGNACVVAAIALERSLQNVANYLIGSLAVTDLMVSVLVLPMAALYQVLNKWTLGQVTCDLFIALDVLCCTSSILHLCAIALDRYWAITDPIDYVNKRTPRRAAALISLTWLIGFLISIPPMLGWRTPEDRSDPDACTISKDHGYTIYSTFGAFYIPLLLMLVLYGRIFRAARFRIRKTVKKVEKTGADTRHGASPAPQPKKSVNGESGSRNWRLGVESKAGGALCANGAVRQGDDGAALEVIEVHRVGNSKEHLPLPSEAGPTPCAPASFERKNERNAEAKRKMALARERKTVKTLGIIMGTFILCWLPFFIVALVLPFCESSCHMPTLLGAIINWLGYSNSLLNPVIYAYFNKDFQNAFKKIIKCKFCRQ
Assay: Binding affinity to 5-HT 1A (unknown origin) by competition binding assay
Details: read-out: Ki
pKi: −log10 of the molar value.
Listing: pKi of selected molecules

Q: # input molecule: C=CCN(CC=C)CCc1c[nH]c2ccc(C)cc12 ; wanted: its pKi
Ans: > 5.00

Q: Value lookup for pKi; key = C=CCN(CC=C)CCc1c[nH]c2ccccc12
Ans: > 5.00

---

Target: Sigma non-opioid intracellular receptor 1 (Homo sapiens, UniProt Q99720)
Sequence (Q99720 whole entry): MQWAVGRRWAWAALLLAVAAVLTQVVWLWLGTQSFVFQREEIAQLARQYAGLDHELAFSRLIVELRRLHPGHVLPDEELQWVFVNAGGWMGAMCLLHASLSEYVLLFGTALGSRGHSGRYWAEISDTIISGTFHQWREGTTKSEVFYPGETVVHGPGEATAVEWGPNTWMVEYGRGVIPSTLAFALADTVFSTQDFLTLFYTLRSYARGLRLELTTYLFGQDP
Assay: Binding affinity to sigma 1 receptor (unknown origin) by competition binding assay
Conditions: read-out: Ki
pKi: −log10 of the molar value.
PARAMETER: pKi

C=CCN(CC=C)CCc1c[nH]c2ccccc12 :: > 5.00
C=CCN(CC=C)CCc1c[nH]c2ccc(OC)cc12 :: > 5.00

Switching to the query record.
Q: What value of measured pKi is listed for C=CCN(CC=C)CCc1c[nH]c2ccc(C)cc12 ?
Ans: > 5.00

---

Experiment: Binding affinity to sigma 2 receptor (unknown origin) by competition binding assay
Parameters: species or system Homo sapiens
PARAMETER: pKi
Reply with the value as a number alone.

Q: Could you tell me which pKi is on file for C=CCN(CC=C)CCc1c[nH]c2ccc(Cl)cc12 ?
Ans: 6.98

Q: pKi for C=CCN(CC=C)CCc1c[nH]c2ccc(Br)cc12 ?
Ans: 7.01

Q: # lookup: pKi of C=CCN(CC=C)CCc1c[nH]c2ccc(OC)cc12
Ans: 6.6

Q: Returns the measured pKi for the input molecule. Input: C=CCN(CC=C)CCc1c[nH]c2ccc(F)cc12
Ans: 6.52

Q: What value of measured pKi is listed for C=CCN(CC=C)CCc1c[nH]c2ccccc12 ?
Ans: 6.45
